Origin of values: PubChem BioAssay (NCI)

- System: PC-3 prostate
- assay-remarks: NCI-60 one-dose screen, 48 h
- measurement-conditions: 10 µM unless noted
This is part of a sample that, as a whole, favours compounds with a hit. Of some 83,000 tested, about 20% had one in any assay. The source made the active and inactive calls. How the source made its calls: active means growth percent below 10; inactive means the rest.
I would appreciate it if you answered using one of these outcomes: active, inactive

compound	class
C#Cc1cccc(Nc2ncnc3ccc(NC(=O)c4ccccc4)cc23)c1	inactive
CC(C)(C)CC(C)(C)Cc1ccc(OCCOCC[N+](C)(C)Cc2ccccc2)cc1	inactive
O=C1NN(c2ccccc2)C(c2ccc3c(c2)OCO3)N2CCC[C@@H]12 (some centres undefined)	inactive
C#CC[C@@H]1C[C@]2(C)[C@H]3CC[C@@H]4[C@H]5[C@H](C(=C)C)CC[C@]5(C(=O)O)CC[C@@]4(C)[C@]3(C)CC[C@H]2C(C)(C)[C@H]1O	active

### Prompt Recorded call for `O=C(Nc1nccs1)c1noc2ccccc12` ?
### Response inactive

### Prompt Each compound tested received a call. Report the one for `COc1ccc(Nc2nc(SCC(C)C)nc(-c3ccc(F)cc3)c2C#N)cc1` .
### Response inactive

### Prompt What did the test return for `CCCNc1nc(C)[nH]c(=O)c1S` ?
### Response inactive

### Prompt Each compound tested received a call. Report the one for COc1ccc(C2CC(c3ccc(OC)cc3O)=NN2c2ccc(S(N)(=O)=O)cc2)cc1 (centres undefined) .
### Response inactive

### Prompt // return assay outcome for `CC1(C)CC[C@]2(c3nnc(-c4ccncc4)o3)CC[C@]3(C)C(=CC[C@@H]4[C@@]5(C)CCC(=O)C(C)(C)[C@@H]5CC[C@]43C)[C@@H]2C1`
### Response inactive

###

Overview of recorded growth for various compounds
- Test system: SK-OV-3 ovarian
- assay-remarks: NCI-60 one-dose screen, 48 h (100 = growth as untreated, 0 = no growth, -100 = all killed)
- measurement-conditions: 10 µM unless noted
Compounds without any hit were thinned out: in the full panel of roughly 83,000, 20% have a hit.
# unit: % | format: bare number

compound	unit-of-measurement	growth
CC(=O)Oc1c2c(nc3c1c1ccccc1n3Cc1ccccc1)-c1ccccc1C2	%	92
CN1CCN(C(=O)[C@@]2(C)CC[C@]3(C)CC[C@]4(C)C(=CC[C@@H]5[C@@]6(C)CC[C@H](OC(=O)c7cccnc7)C(C)(C)[C@@H]6CC[C@]54C)[C@@H]3C2)CC1	%	79.3
COc1cc(C2=N/C(=C\c3cc4ccccc4nc3Oc3ccccc3)C(=O)N2C(=N)N)cc(OC)c1OC	%	44.2
COc1cc(C2=NNC(c3ccc(N(C)C)cc3)C2)cc(OC)c1OC (centres undefined)	%	19.5

### Prompt Give the measured growth of `CN(CCC#N)C(=O)Nc1ccccc1` .
### Response 100

### Prompt Consider the compound shown here: `O=C(Nc1nc(-c2ccccc2Cl)cs1)c1cc(-c2ccc(Br)cc2)nc2ccccc12` What is its recorded growth?
### Response 31.8

### Prompt Fill blank: measured growth of the compound `COc1cc(-c2nn(-c3ccc(Br)cc3)cc2CO)ccc1O` is ____.
### Response 105

### Prompt So what does the record say about growth for `O=C1C(Cl)=C(Nc2ccc3c(c2NC2=C(Cl)C(=O)c4ccccc4C2=O)C(=O)c2ccccc2C3=O)C(=O)c2ccccc21` ?
### Response 90.3

### Prompt // query growth value for entry `CNCc1cccc2c1OCCOCCOCCN(CCN1CCOCC1)S(=O)(=O)c1ccc(cc1)-c1cnc(N)c(n1)C(=O)N2`
### Response 17.3

### Prompt Fill in: growth of O=C1Nc2ccccc2C12C=C(c1ccccc1)Nc1c2c(-c2ccccc2)nn1-c1ccccc1 (centres undefined) is ___
### Response 87

### Prompt For `COc1ccccc1Nc1nnc(-c2ccc(Cl)cc2)o1` , what is its reported growth?
### Response 47.7

### Prompt Endpoint output: growth of `NS(=O)(=O)c1ccc(N2Cc3cc(Cl)ccc3OC3=C2C(=O)N(CC2CCCCC2)C3=O)cc1` . Value?
### Response 60
